Target: T1, full length human MSR1 with a C-terminal Myc tag, on HEK293.Myc.hMSR1 cells (human, UniProt P21757 1-451)
T1 sequence (looked up): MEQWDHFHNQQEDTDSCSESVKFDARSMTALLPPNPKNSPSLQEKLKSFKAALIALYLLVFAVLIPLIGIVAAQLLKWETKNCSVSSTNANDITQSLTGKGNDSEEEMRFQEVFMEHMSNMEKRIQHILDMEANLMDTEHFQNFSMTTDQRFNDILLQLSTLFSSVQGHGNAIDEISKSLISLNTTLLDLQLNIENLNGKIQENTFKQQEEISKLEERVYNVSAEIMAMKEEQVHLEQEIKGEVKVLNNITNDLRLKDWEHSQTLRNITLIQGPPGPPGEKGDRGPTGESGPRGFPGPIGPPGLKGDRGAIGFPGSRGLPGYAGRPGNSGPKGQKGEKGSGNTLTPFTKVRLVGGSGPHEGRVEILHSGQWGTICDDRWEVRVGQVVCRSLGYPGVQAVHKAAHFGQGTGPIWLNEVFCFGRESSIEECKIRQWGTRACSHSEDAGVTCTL
Assay: cell-based or functional assay
# maps each entry to its IC50 of Dil-Acetylated LDL uptake inhibition
Value kind: IC50 of Dil-Acetylated LDL uptake inhibition

{"Binder": "H1H27731P-N297Q (antibody, V domains shown, human IgG1 Fc with N297Q) VH: QLQLQESGPGLVKPSETLSLTCTVSGGSISRISYYWGWIRQPPGKGLEWIGSIYDSGSTYYNPSLKSRVTISIDTSKNQFSLKLSSVTAADTAVYYCVRYSSSSAFAFDYWGQGTLVTVSS VL: DIQMTQSPSSVSASVGDRVTITCRASQGISSWLAWYQQKPGKAPKLLIYAASSLQSGVPSRFSGSGSGTDFTLTISSLQPEDFATYYCQQANSFPFTFGPGTKVDIKR", "Result value": "1.8 nM"}
{"Binder": "H2bM21234N (antibody, V domains shown) VH: QVQLQESGPGLVKPSETLSLTCTVTGGSISRNYWSWIRQPPGKGLEWIGYIYYSGSIDYNPSLKSRVTISVDTSKNQFSLKLSSMTAADTAVYYCARDRWNWKYGMDVWGQGTTVIVSS VL: EIVLTQSPGTLSLSPGERATLSCRASQTVRNNYLAWYHQKPGQAPRLLIYGASSRATGIPDRFSGSGSGTDFTLTISRLEPEDFTVYYCHQYGNSPWTFGQGTKMEIKR", "Result value": "1.8 nM"}
{"Binder": "H1H21234N-N297Q (antibody, human IgG1, V domains shown, human IgG1 Fc with N297Q point mutation (EU numbering)) VH: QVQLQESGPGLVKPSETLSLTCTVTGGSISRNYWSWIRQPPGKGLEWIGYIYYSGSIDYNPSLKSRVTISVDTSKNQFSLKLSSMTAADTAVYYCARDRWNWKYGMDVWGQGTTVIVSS VL: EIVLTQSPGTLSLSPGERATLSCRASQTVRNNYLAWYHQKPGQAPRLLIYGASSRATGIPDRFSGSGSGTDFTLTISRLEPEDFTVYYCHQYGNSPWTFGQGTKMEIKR", "Result value": "1.3 nM"}
{"Binder": "H2aM25695N (antibody, mouse IgG2a, V domains shown, mouse IgG2a Fc) VH: QVQLQESGPGLVKPSETLSLTCTVTGGSISRNYWSWIRQPPGKGLEWIGYIYYSGSINYNPSLKSRVTISVDMSKNQFSLKLNSVTAADTAVYYCARDRWNWKYGMDVWGQGTTVIVSS VL: EIVLTQSPGTLSLSPGERATLSCRASQTVRNSYLAWYHQKPGQAPRLLIYGASSRATGIPDRFSGSGSGTDFTLTISRLEPEDFAVYYCQQYGSSYWTFGQGTKMEIKR", "Result value": "> 170 nM"}
{"Binder": "H2aM21227N (antibody, mouse IgG2a, V domains shown) VH: QVQLVQSGAEVKKPGASVKVSCKVSGYTLTELSIHWVRQVPGKGLEWMGGFDPEEGETIFAQEFRDRVTLTEDTSPDTAYMELSSLKSEDAAVYYCTTPRYCNNGICYDYWGQGTLVTVSS VL: DIQMTQSPSSLSASVGDRVTITCRASQSISNYLNWYQQKPGKAPKLLIYTASSLQSGVPSRFSGSGSGTDFTLTISSLQTEDFATYYCQQSYSNFPITFGQGTRLEIKR", "Result value": "3.7 nM"}
{"Binder": "H1H27729P-N297Q (antibody, human IgG1, V domains shown, human IgG1 Fc with N297Q) VH: QVQLVESGGGLVKPGGSLRLSCAASGFIFSDYYMSWIRQAPGKGLEWVSYISSSGTTIYGDSVKGRFTMSRDNAKNSLYLQMNSLRAEDTAVYYCARNYALFDYWGQGTLVTVSS VL: DIQMTQSPSSLSASVGDRVTITCQASQDISKYLNWYQQKPGKAPKLLIYYTSNLETGVPSRFSGSGSGTDFTFTISSLQPEDIATYYCHQSDYLPFTFGPGTKVDIKR", "Result value": "1.2 nM"}
